System: MDA-MB-435
Assay: NCI tumour cell line growth inhibition, 48 h
measuredQuantity: TGI (µM)

[[record]]
compound = "CCOc1cccnc1/C=N/NC(N)=S"
unitannotation = "µM"
censoringoperator = ">"
reportedmeasurement = 100

[[record]]
compound = "CCNC(=O)Oc1ccc(/C(=C(\\C)c2ccc(Cl)cc2)c2ccc(OCCN3CCCCC3)cc2)cc1"
unitannotation = "µM"
censoringoperator = "="
reportedmeasurement = 14.1

[[record]]
compound = "CCCCCCCCCCCCCCCC(=O)OCC1OC(n2ccc(N)nc2=O)C(O)C1O (stereo not given)"
unitannotation = "µM"
censoringoperator = ">"
reportedmeasurement = 100

[[record]]
compound = "COc1ccccc1OC/C(N=Cc1ccncc1)=N/NC(=O)c1ccncc1"
unitannotation = "µM"
censoringoperator = ">"
reportedmeasurement = 100

[[record]]
compound = "COc1cc(C(=O)/C=C/c2c(C(F)(F)F)nc3sccn23)cc(OC)c1OC"
unitannotation = "µM"
censoringoperator = "="
reportedmeasurement = 4.35


###

System: COLO 205 colon
Assay: NCI tumour cell line growth inhibition, 48 h
measuredQuantity: TGI (µM)

[[record]]
compound = "O=C(CCCN1CCc2[nH]c3cc(F)ccc3c2C1)c1ccc(F)cc1"
measuredquantity = "TGI"
censoringoperator = "="
reportedmeasurement = 17.1

[[record]]
compound = "OCCCCC#Cc1ccccc1C#Cc1cnccn1"
measuredquantity = "TGI"
censoringoperator = ">"
reportedmeasurement = 100

[[record]]
compound = "Clc1ccccc1C1=NN(c2ccccc2)C2c3cc(Br)ccc3OCC12 (stereo not given)"
measuredquantity = "TGI"
censoringoperator = ">"
reportedmeasurement = 100

[[record]]
compound = "COc1cc(C2S/C(=C/c3ccccc3)C(=O)N2c2ccc(Cl)cc2)cc(OC)c1OC (stereo not given)"
measuredquantity = "TGI"
censoringoperator = "="
reportedmeasurement = 5.68

[[record]]
compound = "CCN(CC)CCOc1ccc(C2=C(c3ccccc3)CCc3cc(OC)ccc32)cc1"
measuredquantity = "TGI"
censoringoperator = "="
reportedmeasurement = 3.04

[[record]]
compound = "COc1ccc(S(=O)(=O)NCCNc2nccc(-c3c(-c4ccccc4)nc4sccn34)n2)cc1"
measuredquantity = "TGI"
censoringoperator = ">"
reportedmeasurement = 100

[[record]]
compound = "N#CC1(C#N)C2C=CC(C3CCC=C32)C1(C#N)C#N (stereo not given)"
measuredquantity = "TGI"
censoringoperator = "="
reportedmeasurement = 3.66

[[record]]
compound = "COc1cc2c(cc1OC)C1Cc3ccccc3CN1CCC2 (stereo not given)"
measuredquantity = "TGI"
censoringoperator = ">"
reportedmeasurement = 100

[[record]]
compound = "Cc1cc(S(=O)(=O)NC(=NCC(=O)NN)NN)c(S)cc1Cl"
measuredquantity = "TGI"
censoringoperator = ">"
reportedmeasurement = 10

[[record]]
compound = "COC(=O)Nc1nc2ccc(Sc3ccc(NC(=O)Nc4cc(C(F)(F)F)ccc4F)cc3)cc2[nH]1"
measuredquantity = "TGI"
censoringoperator = "="
reportedmeasurement = 9.29

[[record]]
compound = "Cc1cc2c(cc1Cl)SC1=NN(C)C(c3ccccc3O)N1S2(=O)=O (stereo not given)"
measuredquantity = "TGI"
censoringoperator = ">"
reportedmeasurement = 100

[[record]]
compound = "C[C@]12CC[C@@H]3c4ccc(O)cc4CC[C@H]3[C@@H]1CC[C@@H]2NS(=O)(=O)c1ccc(-c2ccccc2)cc1"
measuredquantity = "TGI"
censoringoperator = "="
reportedmeasurement = 3.38

[[record]]
compound = "CC(C)C[C@H](NC(=O)[C@@H](O)[C@H](N)Cc1ccccc1)C(=O)O"
measuredquantity = "TGI"
censoringoperator = ">"
reportedmeasurement = 100

[[record]]
compound = "C=C1C(=O)O[C@H]2C(=O)[C@H](C)CCC[C@@](C)(O)/C=C\\C[C@@]3(C)O[C@@H]3C[C@@H]12"
measuredquantity = "TGI"
censoringoperator = "="
reportedmeasurement = 30.4

[[record]]
compound = "O=C(O)CCCc1nc2c(n1-c1ccccc1)C(=O)c1ccccc1C2=O"
measuredquantity = "TGI"
censoringoperator = ">"
reportedmeasurement = 100

[[record]]
compound = "C=C(CCC(C(=O)O)C1CCC2(C)C3=C(CCC12C)C1(C)CCC(O)C(C)(C)C1CC3)C(C)C (stereo not given)"
measuredquantity = "TGI"
censoringoperator = ">"
reportedmeasurement = 100

[[record]]
compound = "CCNC(=O)Oc1ccc(/C(=C(\\C)c2ccc(Cl)cc2)c2ccc(OCCN3CCCCC3)cc2)cc1"
measuredquantity = "TGI"
censoringoperator = "="
reportedmeasurement = 4.6

[[record]]
compound = "OCc1ccccc1OC1OC(CO)C(O)C(O)C1O (stereo not given)"
measuredquantity = "TGI"
censoringoperator = ">"
reportedmeasurement = 100

[[record]]
compound = "COc1cc2c(cc1OC)[C@H]1C(=O)c3cc4c(cc3[C@H]1N(C)C2=O)OCO4"
measuredquantity = "TGI"
censoringoperator = ">"
reportedmeasurement = 46.4

[[record]]
compound = "O=C(Cc1nc2ccc([N+](=O)[O-])cc2[nH]c1=O)C(=O)Nc1cc(Cl)c(Cl)cc1Cl"
measuredquantity = "TGI"
censoringoperator = ">"
reportedmeasurement = 100

